Test system: MDA-MB-435
Experiment Description: NCI tumour cell line growth inhibition, 48 h
The source made the active and inactive calls. Rule as the data show it: active = GI50 up to about 1.1 µM and inactive = higher.
Thanks in advance; please answer with one of these: active, inactive

Name the outcome recorded for COc1cccc2c1[C@H]1CO[C@H]3C4C[C@H](C(=O)O)C([C@@H](C2)N13)N4C (stereo partly specified) in the assay.
active

Name the outcome recorded for CCCCN(CCCC)CCC(O)c1cc(-c2ccc(C(F)(F)F)cc2)nc(-c2ccc(C(F)(F)F)cc2)c1 (stereo unspecified) in the assay.
inactive

Name the outcome recorded for CCOP(=O)(OCC)C(C)(C)N(C)/C(F)=N/C(F)(F)F in the assay.
inactive

Name the outcome recorded for Clc1ccccc1/C=c1\nc(-c2ccccc2)n2c1nc1ccccc12 in the assay.
inactive

Name the outcome recorded for NNC(=O)CCSc1ccccc1 in the assay.
inactive

Name the outcome recorded for Clc1ccc(CSCCc2ccncc2)cc1Cl in the assay.
inactive

====

Test system: SK-MEL-5
Experiment Description: NCI tumour cell line growth inhibition, 48 h
The source made the active and inactive calls. Rule as the data show it: active = GI50 up to about 1.1 µM and inactive = higher.
Result Type: GI50

API: value(readout= GI50, system= SK-MEL-5, query= Nc1nc(=O)[nH]cc1F )
> 100 µM (inactive)

API: value(readout= GI50, system= SK-MEL-5, query= COC(=O)C(=O)C(CC(=O)Nc1cccc(C(F)(F)F)c1)C(=O)OC (stereo unspecified) )
> 100 µM (inactive)

API: value(readout= GI50, system= SK-MEL-5, query= CCNC(=O)C(C)C1CCC2(C)C=CC(=O)C(C)=C2C1O (stereo unspecified) )
> 100 µM (inactive)

API: value(readout= GI50, system= SK-MEL-5, query= CCCCNC(=S)Nc1nc(C(=O)NNC(=S)Nc2ccccc2)cs1 )
40.4 µM (inactive)

API: value(readout= GI50, system= SK-MEL-5, query= CCCCCCC(CCl)c1sc(-c2csc(CCNC(=O)OC(C)(C)C)n2)nc1C(=O)OC (stereo unspecified) )
4.37 µM (inactive)

API: value(readout= GI50, system= SK-MEL-5, query= O=C(CCN1CCCCC1CO)Nc1ccc2c(c1)C(=O)c1ccc(NC(=O)CCN3CCCCC3CO)cc1C2=O (stereo unspecified) )
15.4 µM (inactive)

====

Kindly supply the reported GI50 values for the records listed here.
Test system: HCT-116
Experiment Description: NCI tumour cell line growth inhibition, 48 h
The source made the active and inactive calls. Rule as the data show it: active = GI50 up to about 1.1 µM and inactive = higher.

Which GI50 is reported for this compound? CC(C)(CO)NC(=O)c1cccs1
> 100 µM (inactive)

Which GI50 is reported for this compound? C1CN(c2nnc(N3CCC3)nn2)C1
84.5 µM (inactive)

Which GI50 is reported for this compound? CCCC(=O)NC(Nc1ccc(F)cc1)(C(F)(F)F)C(F)(F)F
19.8 µM (inactive)

Which GI50 is reported for this compound? Cc1ccc(C=C(C(=O)O)C(=O)O)o1
> 100 µM (inactive)

Which GI50 is reported for this compound? COC1CCC(CO)OO1 (configuration not stated)
30.3 µM (inactive)

Which GI50 is reported for this compound? O=c1c(SSc2coc3cc(F)ccc3c2=O)coc2cc(F)ccc12
5.14 µM (inactive)

Which GI50 is reported for this compound? Nc1ccc(/N=N\c2ccc(-c3ccc(O)cc3)cc2)c2ccc(S(=O)(=O)O)cc12
> 100 µM (inactive)
